Values from patent US20260242478A1

systemName: T1, 006 PSMA Fab
T1 construct: also called Anti-PSMA Fab
assayNotes: clonal phage ELISA on biotinylated PSMA Fab captured on neutravidin plates, anti-M13 HRP detection;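 further: crude clonal phage supernatants tested, before phage were added, wells were pretreated with PSMA antigen in blocking buffer or with blocking buffer only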
Where no end group is shown, it is not given here.
Sorting guide: entries reporting Phage binding ELISA signal, Anti-PSMA Fab beneath 2 go in the y pile, the rest go in the n pile.

1. VDRWCTPPWMCDWQ (cysteine pairing not given here; also: fused to pIII of bacteriophage, linker and pIII sequence not given here, Clonal phage of the Peptide-180 optimization library, tested as crude phage supernatant; not shown: fused to pIII of the bacteriophage) [Phage-2837]: y
2. DWKLCKPTWMCESL (cysteine pairing not given here; also: fused to pIII of bacteriophage, linker and pIII sequence not given here, Clonal phage of the Peptide-180 optimization library, tested as crude phage supernatant; not shown: fused to pIII of the bacteriophage) [Phage-2836]: y
3. VVAMCKPAWMCAGL (cysteine pairing not given here; also: fused to pIII of bacteriophage, linker and pIII sequence not given here, Clonal phage of the Peptide-180 optimization library, tested as crude phage supernatant; not shown: fused to pIII of the bacteriophage) [Phage-2844]: n
4. VFPICKPSWMCVGM (cysteine pairing not given here; also: fused to pIII of bacteriophage, linker and pIII sequence not given here, Clonal phage of the Peptide-180 optimization library, tested as crude phage supernatant; not shown: fused to pIII of the bacteriophage) [Phage-2849]: n
5. ESIRCTPAWMCVEM (cysteine pairing not given here; also: fused to pIII of bacteriophage, linker and pIII sequence not given here, Clonal phage of the Peptide-180 optimization library, tested as crude phage supernatant; not shown: fused to pIII of the bacteriophage) [Phage-2841]: y
6. WMPRCVPEWMCAGF (cysteine pairing not given here; also: fused to pIII of bacteriophage, linker and pIII sequence not given here, Clonal phage of the Peptide-180 optimization library, tested as crude phage supernatant; not shown: fused to pIII of the bacteriophage) [Phage-2847]: n
7. EPQWCIPKWMCDHM (cysteine pairing not given here; also: fused to pIII of bacteriophage, linker and pIII sequence not given here, Clonal phage of the Peptide-180 optimization library, tested as crude phage supernatant; not shown: fused to pIII of the bacteriophage) [Phage-2840]: y
